The following binders are listed with their measured koff values.
# testSystem: T1, human C1s (human, UniProt P09871 16-688)
# T1 construct: also called hC1s; serum-derived human C1s (CompTech)
# T1 sequence: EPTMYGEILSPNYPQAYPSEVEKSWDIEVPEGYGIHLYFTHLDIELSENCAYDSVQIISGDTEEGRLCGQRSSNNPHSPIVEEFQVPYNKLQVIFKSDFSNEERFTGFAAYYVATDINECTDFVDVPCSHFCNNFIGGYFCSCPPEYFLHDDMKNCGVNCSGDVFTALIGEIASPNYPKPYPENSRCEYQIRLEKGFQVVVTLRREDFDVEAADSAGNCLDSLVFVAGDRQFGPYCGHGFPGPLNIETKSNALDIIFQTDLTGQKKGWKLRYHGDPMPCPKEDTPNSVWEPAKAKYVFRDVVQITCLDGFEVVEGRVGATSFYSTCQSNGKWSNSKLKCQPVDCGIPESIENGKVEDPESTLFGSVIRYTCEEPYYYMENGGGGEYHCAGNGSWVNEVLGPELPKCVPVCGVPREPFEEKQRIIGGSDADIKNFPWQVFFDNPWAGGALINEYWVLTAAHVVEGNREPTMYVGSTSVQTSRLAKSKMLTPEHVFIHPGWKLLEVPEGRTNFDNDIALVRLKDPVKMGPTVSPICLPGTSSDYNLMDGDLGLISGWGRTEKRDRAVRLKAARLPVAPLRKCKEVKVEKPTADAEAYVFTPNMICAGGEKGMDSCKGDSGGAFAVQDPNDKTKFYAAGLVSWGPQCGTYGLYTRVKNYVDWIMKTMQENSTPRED
# measurementDescription: SPR, Ab captured; pH 7.4, 1.2 mM Ca
Report as a plain number; the unit s⁻¹ is understood.

C1_IPN009VH2-SG4GK/IPN93L0031-SK1 (antibody, human IgG4 S228P, kappa, name in Kabat numbering, V domains shown, also called IPN009VH2/IPN93L0031) VH: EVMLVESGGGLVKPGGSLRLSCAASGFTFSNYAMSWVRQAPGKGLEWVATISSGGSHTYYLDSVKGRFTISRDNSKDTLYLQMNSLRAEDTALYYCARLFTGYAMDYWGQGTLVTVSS VL: QIVLTQSPATLSLSPGERATLSCTASSSVSSSYLHWYQQKPGKAPKLWIYSTSNLASGVPSRFSGSGSGTDYTLTISSLQPEDFATYYCHQYHRHHPITFGQGTKLEIKR : 8e-06
C1_IPN92H0026-SG4GK/IPN93L0031-SK1 (antibody, human IgG4 S228P, kappa, name in Kabat numbering, V domains shown, also called IPN92H0026/IPN93L0031) VH: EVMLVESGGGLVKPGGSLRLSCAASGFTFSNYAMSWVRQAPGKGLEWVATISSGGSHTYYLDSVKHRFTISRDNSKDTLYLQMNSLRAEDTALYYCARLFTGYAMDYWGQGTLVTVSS VL: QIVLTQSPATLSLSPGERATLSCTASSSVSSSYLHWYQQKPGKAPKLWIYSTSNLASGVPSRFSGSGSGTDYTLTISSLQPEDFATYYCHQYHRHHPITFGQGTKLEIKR : 0.016

Below: the item to evaluate.
Memo: C1_IPN009VH2-SG4GK/IPN93L0030-SK1 (antibody, human IgG4 S228P, kappa, name in Kabat numbering, V domains shown, also called IPN009VH2/IPN93L0030) VH: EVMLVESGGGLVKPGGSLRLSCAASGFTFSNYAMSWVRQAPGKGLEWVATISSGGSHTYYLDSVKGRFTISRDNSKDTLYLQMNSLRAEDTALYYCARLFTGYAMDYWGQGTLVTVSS VL: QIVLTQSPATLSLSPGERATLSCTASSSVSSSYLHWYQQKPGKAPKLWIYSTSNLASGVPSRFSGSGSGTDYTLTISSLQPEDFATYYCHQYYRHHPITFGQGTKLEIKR , reported koff: 0.0156

Ref: patent US20210032365A1
